# target or system: REFACTO® factor VIII-like polypeptide (amino acids 1-743 and 1638 through 2332 of human factor VIII) (human) (UniProt P00451)
# Sequence (P00451 20-762, chain 1 of 2): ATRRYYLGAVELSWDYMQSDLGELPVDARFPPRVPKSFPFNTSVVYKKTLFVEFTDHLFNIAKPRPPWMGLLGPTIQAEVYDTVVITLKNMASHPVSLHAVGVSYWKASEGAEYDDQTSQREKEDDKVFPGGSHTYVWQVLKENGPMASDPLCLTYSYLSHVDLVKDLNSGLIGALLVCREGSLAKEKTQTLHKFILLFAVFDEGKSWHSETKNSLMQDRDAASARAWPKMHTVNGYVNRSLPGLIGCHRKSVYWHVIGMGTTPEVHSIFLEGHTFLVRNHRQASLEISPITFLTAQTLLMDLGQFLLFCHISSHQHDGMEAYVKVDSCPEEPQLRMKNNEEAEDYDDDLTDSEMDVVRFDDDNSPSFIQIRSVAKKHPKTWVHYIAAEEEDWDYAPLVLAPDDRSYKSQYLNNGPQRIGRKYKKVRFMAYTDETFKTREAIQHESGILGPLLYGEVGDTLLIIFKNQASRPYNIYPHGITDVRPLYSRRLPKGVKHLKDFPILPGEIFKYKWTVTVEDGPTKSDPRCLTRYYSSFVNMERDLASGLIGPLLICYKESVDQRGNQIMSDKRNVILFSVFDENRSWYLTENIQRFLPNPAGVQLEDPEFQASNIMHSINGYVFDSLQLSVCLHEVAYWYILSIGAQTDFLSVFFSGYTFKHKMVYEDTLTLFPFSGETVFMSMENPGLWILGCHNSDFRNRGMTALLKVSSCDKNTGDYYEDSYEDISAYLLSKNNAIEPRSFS
# Sequence (P00451 1657-2351, chain 2 of 2): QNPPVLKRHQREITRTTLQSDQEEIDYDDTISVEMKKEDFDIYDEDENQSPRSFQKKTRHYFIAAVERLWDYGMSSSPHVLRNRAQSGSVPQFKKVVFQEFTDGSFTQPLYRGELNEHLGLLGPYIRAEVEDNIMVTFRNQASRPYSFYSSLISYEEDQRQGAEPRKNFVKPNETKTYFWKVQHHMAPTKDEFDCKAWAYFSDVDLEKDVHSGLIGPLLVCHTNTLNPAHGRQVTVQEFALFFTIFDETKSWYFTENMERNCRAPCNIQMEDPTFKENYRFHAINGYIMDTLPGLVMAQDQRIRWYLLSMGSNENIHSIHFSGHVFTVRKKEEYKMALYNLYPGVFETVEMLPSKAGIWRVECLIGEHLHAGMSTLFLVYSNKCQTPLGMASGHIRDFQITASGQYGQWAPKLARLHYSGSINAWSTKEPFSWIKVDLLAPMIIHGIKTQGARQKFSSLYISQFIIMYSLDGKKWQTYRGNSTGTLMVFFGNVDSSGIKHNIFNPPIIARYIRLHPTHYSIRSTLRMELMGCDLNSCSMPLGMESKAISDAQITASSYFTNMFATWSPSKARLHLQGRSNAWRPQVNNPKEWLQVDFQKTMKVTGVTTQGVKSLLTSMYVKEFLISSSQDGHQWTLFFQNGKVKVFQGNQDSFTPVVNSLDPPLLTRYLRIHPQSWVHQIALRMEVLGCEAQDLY
# experiment summary: phage ELISA
Exercise: state measured R (ratio of the ELISA score with target present to the ELISA score without target) for each of the binders provided.

Worked cases, R (ratio of the ELISA score with target present to the ELISA score without target) given:
>>> result("FCWVFNFSHCS [TN9 isolate 03 (phage-displayed peptide, SEQ ID NO: 26)]")
24
>>> result("FCWVFNWVHCD [TN9/1 isolate … (SEQ ID NO: 75)]")
14
>>> result("HPCGSWFNPCAH [TN8 isolate 02 (phage-displayed peptide, SEQ ID NO: 13)]")
8

Now, please, on to the next binder.
Lookup result for FGCSWLFPCPF [TN7 isolate A08 (phage-displayed peptide, SEQ ID NO: 5)] ; measured R (ratio of the ELISA score with target present to the ELISA score without target): 8
